# System: Klebsiella pneumoniae
# measurement.setup: Concentration 20 uM; ASSAY_TEST Inhibition of Bacterial Growth; detection method Absorption (OD600); MEDIA CAMHB; plate type 384well; NBS; CORNING #3640; time 18 hr
# Description: Antibacterial activity against Klebsiella pneumoniae MDR ATCC 70063 (CO-ADD:GN_003); MIC in CAMBH media using NBS plates, by OD(600)
Results with a measured potency or affinity are listed apart.
Response key: criterion met means Inhibition >= 10%; criterion not met means Inhibition < 10%.

[
  {
    "compound": "CCC(C)Oc1nc2c(c(=O)n(C)c(=O)n2C)n1C (stereo not drawn)",
    "assigned.label": "criterion not met"
  },
  {
    "compound": "Nc1ccccc1SC1CC(=O)N(c2ccccc2Cl)C1=O (stereo not drawn)",
    "assigned.label": "criterion not met"
  },
  {
    "compound": "N=C(N)NC(=N)Nc1ccc(O)cc1",
    "assigned.label": "criterion not met"
  },
  {
    "compound": "CC(=O)OCCn1c([N+](=O)[O-])cnc1/C=[N+](\\[O-])C1CCCCC1",
    "assigned.label": "criterion met"
  },
  {
    "compound": "Cc1cc(O)c(C(C)C)cc1NC(=O)Nc1cccc2ccccc12",
    "assigned.label": "criterion not met"
  },
  {
    "compound": "Cc1nn(-c2ccccc2)c2c1C(c1ccc([N+](=O)[O-])cc1)C(C#N)=C(N)O2 (stereo not drawn)",
    "assigned.label": "criterion met"
  },
  {
    "compound": "O=C(N(c1ccccc1)c1ccccc1)N(c1ccccc1)c1ccccc1",
    "assigned.label": "criterion met"
  }
]
